- subject-of-test: Protein Tat (Human immunodeficiency virus type 1 group M subtype B (isolate HXB2), UniProt P04608)
- Sequence (P04608 whole entry): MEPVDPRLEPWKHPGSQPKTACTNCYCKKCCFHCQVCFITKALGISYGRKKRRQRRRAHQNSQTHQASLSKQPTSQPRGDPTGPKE
- procedure-summary: Inhibition of HIV1 TAT transfected to human HeLa cells assessed as decrease in luminescence after 48 hrs by duel luciferase reporter gene assay
IC50 strictly less than 10 µM = 1. Otherwise -1.

## Task Input NCCCC[C@@H](CN[C@H](CN[C@H](CN[C@H](CNCCC(N)=O)Cc1ccc(O)cc1)Cc1ccc(O)cc1)Cc1ccc(O)cc1)NC[C@H](Cc1ccc(O)cc1)NC[C@@H](N)Cc1ccc(O)cc1 ; condition: IC50 strictly below 10 µM. Does it hold?
## Result -1

## Task Also, C[C@@H](CN[C@H](CN[C@H](CN[C@H](CNCCC(N)=O)Cc1ccc(O)cc1)Cc1ccc(O)cc1)Cc1ccc(O)cc1)NC[C@H](Cc1ccc(O)cc1)NC[C@@H](N)Cc1ccc(O)cc1 please.
## Result 1

## Task Also, NC(=O)CCNC[C@H](Cc1ccc(O)cc1)NC[C@H](Cc1ccc(O)cc1)NC[C@H](Cc1ccc(O)cc1)NC[C@H](Cc1ccc(O)cc1)NC[C@@H](N)Cc1ccc(O)cc1 please.
## Result -1

## Task Also, NC(=O)CCNC[C@H](Cc1ccc(O)cc1)NC[C@H](Cc1ccc(O)cc1)NC[C@@H](N)Cc1ccc(O)cc1 please.
## Result -1

## Task Also, NCCCC[C@@H](CN[C@H](CNCCC(N)=O)Cc1ccc(O)cc1)NC[C@H](Cc1ccc(O)cc1)NC[C@H](CCCCN)NC[C@H](Cc1ccc(O)cc1)NC[C@@H](N)Cc1ccc(O)cc1 please.
## Result -1

## Task Also, C[C@@H](CN[C@H](CN[C@H](CN[C@H](CNCCC(N)=O)Cc1ccc(O)cc1)Cc1ccc(O)cc1)Cc1ccc(O)cc1)NC[C@H](Cc1ccc(O)cc1)NC[C@H](Cc1ccc(O)cc1)NC[C@H](Cc1ccc(O)cc1)NC[C@@H](N)Cc1ccc(O)cc1 please.
## Result 1
